Data credit: patent US20260132182A1

Molecular target: human GLP-1 receptor (human, UniProt P43220 24-463)
Assay: cell-based or functional assay
Starred links: 1 amine or outer side, 2 acyl side, 3 side chain; linkers in the order of their positions; H or OH if unused. Non-standard residues stand in square brackets, D forms with d. Groups on a side chain read outwards from the residue. *: point of attachment. Butyryl(4-SO2NHCO(CH2)16Tz) = O=C(CCCCCCCCCCCCCCCCc1nnn[nH]1)NS(=O)(=O)CCCC(=O)*; Decanoyl(10-O(3-COOH-Ph)) = O=C(O)c1cccc(OCCCCCCCCCC(=O)*)c1; C20 diacid = O=C(O)CCCCCCCCCCCCCCCCCCC(=O)*; C18 diacid = O=C(O)CCCCCCCCCCCCCCCCC(=O)*; γGlu = O=C(O)[C@H](CCC(=O)[*:2])N[*:1]; C14 diacid = O=C(O)CCCCCCCCCCCCC(=O)*; Desaminohistidyl = O=C(CCc1c[nH]cn1)*; Trx = NC[C@H]1CC[C@H](C(=O)O)CC1; AEEA = NCCOCCOCC(=O)O; Aib = CC(C)(N)C(=O)O
Satisfied if Human GLP-1R potency [EC50 (pM)] is below 30 pM. Not satisfied if not; exact matches included in Not satisfied.

Past entries and their recorded results:
Binder: Compound 0639 (peptide) peptide: H[Aib]EGTFTSDVSSYLEEQAARK([AEEA-AEEA-γGlu-C18 diacid])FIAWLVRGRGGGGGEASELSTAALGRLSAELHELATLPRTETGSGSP-NH2
Group: Satisfied
--
Binder: Compound 0071 (peptide) peptide: H[Aib]EGTFTSDVSSYLEGQAAK([AEEA-AEEA-γGlu-C18 diacid])EFIAWLVRGRGGQEPGQEPK([AEEA-AEEA-γGlu-C18 diacid])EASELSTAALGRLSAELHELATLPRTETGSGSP-NH2
Group: Not satisfied
--
Binder: Compound 0039 (peptide) peptide: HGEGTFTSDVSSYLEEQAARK([AEEA-AEEA-γGlu-C14 diacid])FIEWLVRGK([AEEA-AEEA-γGlu-C14 diacid])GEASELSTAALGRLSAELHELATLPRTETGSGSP-NH2
Group: Not satisfied
--
Binder: Compound 0124 (peptide) peptide: [Desaminohistidyl][Aib]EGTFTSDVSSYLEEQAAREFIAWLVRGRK(Butyryl(4-SO2NHCO(CH2)16Tz))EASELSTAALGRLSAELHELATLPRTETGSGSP-NH2
Group: Satisfied
--
Binder: Compound 0051 (peptide) peptide: [Desaminohistidyl]AEGTFTSDVSSYLEEQAAREFIAWLVRGRK([AEEA-AEEA-γGlu-C18 diacid])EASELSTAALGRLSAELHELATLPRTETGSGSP-NH2
Group: Satisfied

Exercise: Strictly below 30 pM: is that where Human GLP-1R potency [EC50 (pM)] of Compound 0093 (peptide) peptide: H[Aib]EGTFTSDVSSYLEGQAAK([AEEA-AEEA-γGlu-C18 diacid])EFIAWLVRGRGGGGGGGGGGGGGGGGGEASELSTAALGRLSAELHELATLPRTETGSGSP-NH2 sits?
Key: Satisfied

Exercise: Find out if reported Human GLP-1R potency [EC50 (pM)] for Compound 0235 (peptide) peptide: H[Aib]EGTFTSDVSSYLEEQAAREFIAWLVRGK([AEEA-AEEA-γGlu-Decanoyl(10-O(3-COOH-Ph))])K([AEEA-AEEA-γGlu-Decanoyl(10-O(3-COOH-Ph))])GGGGASELSTAALGRLSAELHELATLPRTETGSGSP-NH2 is less than 30 pM
Key: Satisfied

Exercise: Hello, is Human GLP-1R potency [EC50 (pM)] of the following binder strictly smaller than 30 pM? Compound 0269 (peptide) peptide: HWEGTFTSDVSSYLEEQAAREFIEWLVRGRK([AEEA-AEEA-γGlu-Trx-C20 diacid])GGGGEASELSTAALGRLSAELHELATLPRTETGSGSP-NH2
Key: Satisfied
